Test system: SF-295 CNS
Test: NCI tumour cell line growth inhibition, 48 h
quantity-measured: TGI

Here's what some known entries look like.
molecule="O=C1CCCC1NC(=O)C(F)(F)F (stereo not given)" result="> 100 µM"
molecule="O=C(OC(/C=C/c1ccccc1)P1(=O)N(Cc2ccccc2)[C@@H]2CCCC[C@H]2N1Cc1ccccc1)c1ccccc1 (stereo not given in full)" result="> 100 µM"

Item under review: COc1ccc2nc3ccc(OC)cc3c(SCC3CO3)c2c1 (stereo not given) . Reported TGI?
> 100 µM

Using the record for `CC(=O)OC[C@@H](OC(C)=O)[C@@H](OC(C)=O)[C@H]1OC[C@@H]2C[C@H]([C@H]1OC(C)=O)N(Cc1ccccc1)O2` , report its TGI.
> 100 µM

Name the reported TGI value associated with the molecule `C1=NCCNCCN=Cc2ccccc2OCc2cccc(n2)COc2ccccc21`
> 51.4 µM

====

This section presents compounds with their documented TGI values.
Test system: LOX IMVI melanoma
Assay: NCI tumour cell line growth inhibition, 48 h
The response must be a number in µM with no trailing unit.

# count of solved cases: 5
compound="OC(CNc1ccnc2cc(Cl)ccc12)CNC1CCCCC1 (stereo not drawn)" quantity_measured=TGI quantitative_result=16.7
compound=CN(C)c1ccc(O)c2c1C[C@H]1C[C@H]3[C@H](N(C)C)C(=O)C(C(N)=O)=C(O)[C@@]3(O)C(=O)C1=C2O quantity_measured=TGI quantitative_result=31.9
compound=N#Cc1nc2cc(F)c(F)cc2nc1-c1ccc(Cl)cc1 quantity_measured=TGI quantitative_result=2.68
compound=ClCc1ccc2ccc3ccc(CCl)nc3c2n1 quantity_measured=TGI quantitative_result=2.9
compound=CCCCCCCCNC(=S)/N=C/c1c(O)c2ccccc2oc1=O quantity_measured=TGI quantitative_result=26

Okay, next one:
Endpoint output: TGI of COC(=O)C1(C)CCCC2(C)C3CCC4CC3(C=C4CO)CCC12 (stereo not drawn) . Value?
47.4

====

Tested on: NCI-H23 lung
Assay: NCI tumour cell line growth inhibition, 48 h
quantity-measured: TGI

Record excerpt, results attached:
compound=O=C(NCP(=O)(O)O)c1cccnc1 tgt="NCI-H23 lung" result="> 100 µM"
compound=COc1cccc(C[C@H]2COC(=O)[C@]2(O)Cc2cccc(OC)c2)c1 tgt="NCI-H23 lung" result="> 100 µM"
compound=N#Cc1nc2cc(F)c(F)cc2nc1-c1ccc(Cl)cc1 tgt="NCI-H23 lung" result="33.9 µM"

What value of measured TGI is listed for `CCOC(=O)C#Cc1c(CC(=O)OCC)nnn1[C@H]1O[C@@H](CO)[C@@H]2OC(C)(C)O[C@@H]21` ?
30.5 µM

State the recorded TGI for this entry: `[C-]#[N+]C1(C(=O)OCC)CC1`
> 100 µM

Returns the measured TGI for the input compound. Input: `N#CC(C#N)=C1SCC(=O)CS1`
> 100 µM

Fill blank: measured TGI of the compound `COC(=O)c1c(O)ccc2c1c1c(n2-c2ccc(OC)cc2)C(=O)c2ccccc2C1=O` is ____.
> 100 µM

====

System: DU-145 prostate
Assay: NCI tumour cell line growth inhibition, 48 h
quantity-measured: GI50

Observe how each entry below is paired with its result.
compound=COc1ccc(/C=C/C(=O)c2cc3c(N)c(C(=O)Nc4ccccc4)sc3nc2C)cc1 tgt="DU-145 prostate" result="190 nM"
compound=CN1CCn2c(c(Sc3ccc(C(=O)NO)cc3)c3ccccc32)C1=O tgt="DU-145 prostate" result="2970 nM"
compound=OCCNCCNc1c2ccccc2nc2oc3ccccc3c12 tgt="DU-145 prostate" result="10100 nM"
compound=CCOC(=O)C#Cc1c(CC(=O)OCC)nnn1[C@H]1O[C@@H](CO)[C@@H]2OC(C)(C)O[C@@H]21 tgt="DU-145 prostate" result="10200 nM"
compound=N#C[S-].[Au+].c1ccc(CN2[CH-]N(Cc3ccccc3)C(c3ccccc3)=C2c2ccccc2)cc1 tgt="DU-145 prostate" result="479 nM"
compound=COC(=O)[C@@]1(O)C[C@H]2O[C@]1(C)n1c3ccccc3c3c4c(c5c6ccccc6n2c5c31)C(=O)NC4 tgt="DU-145 prostate" result="161 nM"

Moving on to the next compound.
I would be grateful if you could share the reported GI50 for CSC1C(=O)c2ccccc2/C(=N/Nc2nc3ccccc3s2)C1C (configuration not stated) .
9590 nM

====

Test system: HCC-2998 colon
Test: NCI tumour cell line growth inhibition, 48 h
quantity-measured: TGI (µM)
Write the answer as a number in µM, unit excluded.

State the recorded TGI for this entry: `COc1cccc2c(=O)c3c(sc12)c(NCCN(C)C)nc1ccccc13`
3.02

Given the molecule `O=C1/C(=C/c2ccc(Cl)cc2)COc2ccc(O)c(O)c21` , what is its reported TGI?
2.96

So what does the record say about TGI for `N=C(N)c1ccc(-c2ccc(-c3cccs3)s2)nc1` ?
2.08

TGI for `COc1ccc(/C=C/C(=O)c2cc3c(N)c(C(=O)Nc4ccccc4)sc3nc2C)cc1` ?
6.53

# query: TGI of entry `CCN(CC)CCC(=O)c1ccc(Oc2ccccc2)cc1`
35.6

// returns reported TGI for input `O=C1C(=O)c2ccccc2C(O)=C1CCCCCCCCC1CCCCC1`
24.4

====

Test system: MDA-N
Assay: NCI tumour cell line growth inhibition, 48 h
quantity-measured: TGI (µM)
The reply should be a number in µM, with the unit left off.

Consider the reported TGI for these compounds:
compound=Cc1ccc(CCCCCOc2ccc(C3=NCCO3)cc2)s1 units_label=µM quantitative_result=62.6
compound="O=C1c2ccccc2-c2c1c(-c1ccccc1)c1n2C2(C(=O)c3ccccc3C2=O)C2C(=O)N(c3ccccc3)C(=O)C12 (stereo not given)" units_label=µM quantitative_result=65.3
compound="COc1ccc(/C=C2\\CN(C)CC3C2=NC(=S)NC3c2ccc(OC)cc2)cc1 (stereo not given)" units_label=µM quantitative_result=3.74

From here, focus on the item given below.
Entry `C1=NCCNCCN=Cc2ccccc2OCc2cccc(n2)COc2ccccc21` has what TGI?
31.4

====

Overview of recorded TGI for various compounds
Tested on: SW-620 colon
Assay: NCI tumour cell line growth inhibition, 48 h

Item under review: `N#Cc1nc2cc(F)c(F)cc2nc1-c1ccc(Cl)cc1` . Reported TGI?
50.1 µM

Would you mind telling me what TGI value was observed for COc1ccc2c(c1)OC(N)=C(C#N)C2c1ccc(F)cc1 (stereo not given) ?
> 100 µM

Find the recorded TGI belonging to C=CCCCCCC(O)C(O)C/C=C\C/C=C\CC (stereo not given) and report it.
> 18.8 µM

What value of TGI has been recorded for this entry: CC(=O)OCC1OC(n2c(C)c(C(C)=O)c(-c3cccc4ccccc34)c(C#N)c2=S)C(OC(C)=O)C(OC(C)=O)C1OC(C)=O (stereo not given)
> 100 µM

====

Tested on: NCI-H226 lung
Assay: NCI tumour cell line growth inhibition, 48 h
Catalogue of TGI readings, one per entry.
Use µM as the unit, but write only the number.

Some compounds with known TGI results, for comparison:
compound=C=C1CC[C@@H]2[C@](C)(COC(C)=O)[C@H](OC(C)=O)CC[C@@]2(C)[C@@H]1C/C=C1/C(=O)OC[C@H]1OC(C)=O tgt="NCI-H226 lung" quantitative_result=5.42
compound=COC(=O)c1c(O)ccc2c1c1c(n2-c2ccc(OC)cc2)C(=O)c2ccccc2C1=O tgt="NCI-H226 lung" quantitative_result=73.3
compound="CCCN(CCC)C(=O)[C@H](CC)[C@@H]1CC[C@@H](C)[C@@H]([C@H](C)[C@@H](O)[C@@H](C)C(=O)[C@H](CC)C2O[C@]3(C=C[C@@H](O)[C@]4(CC[C@@](C)([C@H]5CC[C@](O)(CC)[C@H](C)O5)O4)O3)[C@H](C)C[C@@H]2C)O1 (some centres undefined)" tgt="NCI-H226 lung" quantitative_result=5.3

Which TGI reading was recorded for the compound `Clc1nc(Cl)c(Cc2ccccc2)c(Cl)n1` ?
32.4

Please give the measured TGI for this compound: `CN1CCn2c(c(Sc3ccc(C(=O)NO)cc3)c3ccccc32)C1=O`
3.9

Entry `CN1CCN(CCCCN2c3ccccc3Sc3ccc(N=[N+]=[N-])cc32)CC1` has what TGI?
31.7

Param item = CC(C)(C)[Si](C)(C)OCC#C[C@@]1(O)CCCCC1CC(Sc1ccccc1)Sc1ccccc1 (some centres undefined) ; retrieve measured TGI.
34.8

Report TGI for `CNc1nc(N(C)C)nc(N(C)C)n1` please.
2530

====

Tested on: XF 498 CNS
Test: NCI tumour cell line growth inhibition, 48 h
quantity-measured: TGI

compound=CCOc1ccccc1NC(=O)C1=C(C)NC(C)=C(C(=O)Nc2ccccc2OCC)C1c1ccc(NC(C)=O)cc1 quantity_measured=TGI result="43.5 µM"

Endpoint output: TGI of `CC12CC3CC(C1)CC(N=[N+]=[N-])(C3)C2` . Value?
> 100 µM

Look up TGI for this compound: `Cc1ccc(S(=O)(=O)c2c3[nH]c4ccccc4nc3n3c2nc2ccccc23)cc1`
> 100 µM

May I ask what TGI has been recorded for `Clc1ccc(SCCCCCCCCCCSc2ccc(Cl)cc2)cc1` ?
> 100 µM

Would you mind telling me what TGI value was observed for `O=C1C[C@@H]2CCCC[C@@H]2C12SCCS2` ?
> 100 µM

I have this compound here, `O=C1C[C@H]2CC3(CC[C@H]2CN1)OCCO3` , and I need its recorded TGI.
> 100 µM

Reported TGI for `Cc1cc2c(C(C)C)c(O)c(O)c(C=O)c2c(O)c1-c1c(C)cc2c(C(C)C)c(O)c(O)c(C=O)c2c1O` : what is it?
5.55 µM

Look up TGI: COc1cc([C@@H]2OC(=O)C3C2C(=O)O[C@H]3c2cc(OC)c(OC)c(OC)c2)cc(OC)c1OC (stereo not given in full)
> 100 µM

Look at this compound and give its reported TGI. NC(CCSC(F)F)C(=O)O (stereo not given)
> 100 µM

# get_value(readout='TGI', item= COc1ccc2c(c1)CC1c3c(cc4c(c3-2)OCO4)CCN1C (stereo not given) )
74 µM

Fill blank: measured TGI of the compound `Cn1c(=O)c(C(=O)NC(=O)OCc2ccccc2)cn(CCSCCOC(=O)NCCCCCCNC(=O)OCCSCCn2cc(C(=O)NC(=O)OCc3ccccc3)c(=O)n(C)c2=O)c1=O` is ____.
57.6 µM
